Tested on: VchCAST RNA-guided transposition machinery (E. coli BL21(DE3) host, lacZ target)
assay: relative integration efficiency (T-LR orientation) vs wild-type transposon end (log2 (normalized fold change)); transposon end mutated: right end (5 bp flank + 75 bp right end); higher = more efficient transposition
readout label: relative integration efficiency (log2)
Numbers only.

Known relative integration efficiency (log2) results, listed for orientation:
primary sequence: ACATTTGTTGATACACCCATAAATTGATAATTACAACCATAAAGTGATATTTATCACACCCATAAATTGATATTGCCTCTGATCATAGTCAGACCAACATTGCTACGACCCGTATTCGCACCGACAC
readout label: relative integration efficiency (log2)
test result: -0.466

primary sequence: ACATTTGTTGATACAACCATAAAATGATCATTACACCCATAAATTGATAATTATCCCACCCCATTTAACTATAACGCTCTGATCATAGTCAGACCAACATTGCTACGACCCGTATTCGCACCGACAC
readout label: relative integration efficiency (log2)
test result: 1.87

primary sequence: ACATTTGTTGATACAACCATAAAATGATAATTACACCCATAAATTGATAATTATCACACCCCGCCCGGTCGCGGTAAGAGGATCATAGTCAGACCAACATTGCTACGACCCGTATTCGCACCGACAC
readout label: relative integration efficiency (log2)
test result: 2.47

primary sequence: ACATTTGTTGATACAACCATAAAATTATTATTACACCCATTAATTGATAATTATCACACCCAATTTAACTATAACGCTCTGATCATAGTCAGACCAACATTGCTACGACCCGTATTCGCACCGACAC
readout label: relative integration efficiency (log2)
test result: 1.15

# input for lookup
Would you kindly share the measured relative integration efficiency (log2) for ACATTTGTTGATACAACCCGCCAATGATAATTACACCCATAAATTGATAATTATCACACCCATAAATTGATATTGCCTCTGATCATAGTCAGACCAACATTGCTACGACCCGTATTCGCACCGACAC ?
-3.85

====

Test system: VchCAST RNA-guided transposition machinery (E. coli BL21(DE3) host, lacZ target)
assay: relative integration efficiency (T-LR orientation) vs wild-type transposon end (log2 (normalized fold change)); transposon end mutated: right end (5 bp flank + 75 bp right end); higher = more efficient transposition
readout label: relative integration efficiency (log2)
One number for each entry.

Look over these answered cases.
primary sequence: ACATTTGTTGAATCAACCATAAAATGATAATTACACCCATAAATTGATAATTATCACACCCATAAATTGATATTGCCTCTGATCATAGTCAGACCAACATTGCTACGACCCGTATTCGCACCGACAC
test result: 0.00973
//
primary sequence: ACATTTGTTGATACACCCATAAATTGATATTGCCAACCATAAAATGATAATTATCACAACCATATATTGATATCTCCTCTGATCATAGTCAGACCAACATTGCTACGACCCGTATTCGCACCGACAC
test result: -0.207
//
primary sequence: ACATTTGTTCATACAACCCTAAAATGATAATTACACCCATAAATTGATAATTATCACCCCCAATTTAACTATAACGCTCTGATCATAGTCAGACCAACATTGCTACGACCCGTATTCGCACCGACAC
test result: -0.953
//
primary sequence: ACATTTGTTGATACAACCATAAAATGATAATTACACCCATAAATTGATAATTATCACACCCATAAATTGATATTGCCTCTAAAGTGTACAACACTTGAGAAAGTTTACTACAGGTATGCACCGACAC
test result: 0.483

Moving on to another sequence below.
Sample ACATTTGTTGATACAACCATAAAATGATAATTACACCCATAACGTGATAATTATCACACCCATAAATTGATATTGCCTCTGATCATAGTCAGACCAACATTGCTACGACCCGTATTCGCACCGACAC — what was its relative integration efficiency (log2)?
0.32
